Sourced from PubChem BioAssay (NCATS)

# Tested on: Hek293T
# assay procedure: Primary qHTS to identify gynecologic anti-cancer compounds using libraries of approved drugs and bioactive compounds (AID 1345084); further: on the % scale 0 is the no-effect control and ±100 the full control effect; nearly all actives have a fitted effect of over 55% in size
# protocol conditions: Gynecologic cancer cell panel viability, ATPlite luminescence, 48 h, control line for the selectivity index; series mostly up to 57.5 µM
Records with an inconclusive call do not appear. Active and inactive are the calls of the source. The call rests on the fitted dose curve; in most records, active means well fitted cell-killing curve with a large enough effect; inconclusive means small, poorly fitted or top-dose-only effect, or effect the other way; inactive means flat fitted curve, though single readings scatter.
measured attribute: activity change, negative = cytotoxicity

Example entries begin here.
{"compound": "COc1cc(O)cc2c1C(=O)OC(C)CCCCCCC2 (configuration not stated)", "measured attribute": "activity change, negative = cytotoxicity", "recorded measurement": "inactive"}
{"compound": "COc1cc(CCCO)ccc1O[C@@H]1O[C@H](CO)[C@@H](O)[C@H](O)[C@H]1O", "measured attribute": "activity change, negative = cytotoxicity", "recorded measurement": "inactive"}
{"compound": "O=C(O)c1ccncc1Nc1nn(CCN2CCC(F)(F)CC2)c2ccc(F)cc12", "measured attribute": "activity change, negative = cytotoxicity", "recorded measurement": "inactive"}
{"compound": "C/C=C(\\C)C(=O)OC1C2(O)CC3=C4CC(=O)OC(c5ccoc5)C4(C)CCC3C(C)(C2=O)C(C(OC(C)=O)C(=O)OC)C1(C)C (configuration not stated)", "measured attribute": "activity change, negative = cytotoxicity", "recorded measurement": "inactive"}

Record `COc1cc(C(=O)OC[C@@]2(O)CO[C@@H](O[C@H]3[C@H](Oc4ccc(O)cc4)O[C@H](CO)[C@@H](O)[C@@H]3O)[C@@H]2O)cc(OC)c1O` . Reported activity change, negative = cytotoxicity: inactive

Record CC(C)C1CCC(CO)=CC1/C=C(\CO)C(=O)OCC1(O)CCC(C(C)C)C2C=C(C(=O)O)COC(=O)C21 (configuration not stated) . Reported activity change, negative = cytotoxicity: inactive

Record CC1(C)CC[C@]2(C(=O)O[C@@H]3O[C@H](CO)[C@@H](O)[C@H](O)[C@H]3O)CC[C@]3(C)C(=CCC4[C@@]5(C)CC[C@H](OC6OC(C(=O)O)C(OC7OC(CO)C(O)C(O)C7O)C(O)C6O)C(C)(C)C5CC[C@]43C)C2C1 (some centres not stated) . Reported activity change, negative = cytotoxicity: 10.4% [at 11.6 µM] (inactive)

* * *

# max response per entry
# System: NIH3T3
# assay procedure: Cytotoxic Profiling of Annotated Libraries Using Quantitative High-Throughput Screening (AID 1296008); further: on the % scale 0 is the no-effect control and ±100 the full control effect; nearly all actives have a fitted effect of over 60% in size
# protocol conditions: Five cell lines viability, CellTiter-Glo ATP luminescence, 48-72 h; hits give low values
Records with an inconclusive call do not appear. Where a SMILES comes first, the peptide text is derived from it.
Unit % implied. Number only.

Example entries begin here.
{"molecule": "COc1cc(/C=C/C(=O)O[C@H]2C[C@@H]3C(C(=O)O)=CO[C@@H](O[C@@H]4O[C@H](CO)[C@@H](O)[C@H](O)[C@H]4O)[C@@H]3[C@H]2C)ccc1O", "recorded measurement": 1.34}
{"molecule": "CC(C)=C1C[C@@]2(C)C(=CC1=O)CC[C@@H](O)[C@@H]2C", "recorded measurement": -19.7}
{"molecule": "CC(O)CCc1ccc(O[C@@H]2O[C@H](CO)[C@@H](O)[C@H](O)[C@H]2O)cc1 (some centres not stated)", "recorded measurement": -0.367}
{"molecule": "CC(C)=CCC[C@](C)(O[C@@H]1O[C@H](CO[C@@H]2O[C@@H](CO)[C@H](O)[C@H]2O)[C@@H](O)[C@H](O)[C@H]1O)[C@H]1CC[C@]2(C)[C@@H]1[C@H](O)C[C@@H]1[C@@]3(C)CC[C@H](O[C@@H]4O[C@H](CO)[C@@H](O)[C@H](O)[C@H]4O[C@@H]4O[C@H](CO)[C@@H](O)[C@H](O)[C@H]4O)C(C)(C)[C@@H]3CC[C@]12C", "recorded measurement": -28.7}
{"molecule": "NC(=O)C(O[C@@H]1O[C@H](CO[C@@H]2O[C@H](CO)[C@@H](O)[C@H](O)[C@H]2O)[C@@H](O)[C@H](O)[C@H]1O)c1ccccc1 (some centres not stated)", "recorded measurement": 4.15}

Record CC(=O)NC(Cc1ccccc1)C(=O)NC(C(=O)O)C(C)C (stereo not drawn) (Ac-Phe-Val-OH; configuration not given here) . Reported max response: 4.03

Record C=CC(C)(O)CC/C=C(\C)COC1O[C@H](CO)[C@@H](O)[C@H](O)[C@H]1O (some centres not stated) . Reported max response: 3.77
